// provenance: the supplement of paper PMC12042874

protocol-description: amyloid nucleation score (Sup35N fusion, yeast selection) (log enrichment); library NNK3; higher = more nucleation; inactive = no reads after selection;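 further: zero at mode of non-aggregating sequences after 7 days selection at 30°C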
assay-endpoint: amyloid nucleation score

substance=ATTADLDRCSLFPKLRILRG value=inactive
substance=RFWFMDFFSH value=1.89
substance=TWKQDWDNFSYVLNSSSHST value=inactive
substance=LCFNCGVFCFFFRVGETTNW value=2.84
substance=DFRSLWTRLSSHRSAFYLLS value=inactive
substance=QIYSFFIWIEKTGVCRWLWA value=inactive
substance=KPRILFQCPIRKVLRVGVKF value=inactive
substance=HVFNGY value=inactive
substance=LMYTRGFLWGAWINACMSRG value=1.2
substance=HAQCLMSIIEVS value=-0.029
substance=INFNLVHRLEVFWRVI value=inactive
substance=FGHIGQRRSFVIHLMHDGSP value=inactive
substance=CRDKANVLAAVRRR value=inactive
substance=FKDFIIICLAKLFGIFYDTD value=inactive
substance=NYWSTQLSIFCCKDCATTSA value=2.42
substance=LPGSDRQFPREAVHYSRMRG value=0.714
substance=FSLMLSRTTMAIFTDIRDWG value=inactive
substance=GTRIGEIRLASFGSVRGFNV value=inactive
substance=EAARTDLSILFISWMLLGKR value=inactive
substance=QCRQVIENNRVLFVAIKWEN value=0.57
substance=NSYEEWSKWHFSNWSGFSGC value=inactive
substance=DAGLRLLYSSLTGRL value=inactive
substance=LFRLACVTNMRSNLLSYRRC value=0.131
substance=FTPLCSNVAGRNMEQYCS value=inactive
substance=YFANTVRTFLVLLQAFVLVV value=inactive
substance=VYWFKELADSITRCVKNYIY value=inactive
substance=TLLRLHQVAY value=inactive
substance=PYAILFNAWNLSAPMACSWV value=inactive
substance=PRNMVFYVFCNVSLTHAMYS value=0.845
substance=LHRSCAIAA value=inactive
substance=KGSTLVMLP value=inactive
substance=DLLPLVTKYFSIGLH value=inactive
substance=RKTRDSCTMGSNTTWRVIFC value=0.158
substance=MTVHDIHYLS value=inactive
substance=YQRLHSL value=inactive
substance=WNVWVLPIFIAFGLEPPRLE value=2.62
substance=SLTGRWSTVGRSMGLNTRGG value=inactive
substance=TLSYRMFINKPSGMMCEHFN value=1.05
substance=HSIIRVSFLDMVCAGNSIVR value=-0.504
substance=ISQHMANFYNSVVVVCILED value=3.19
substance=RVGISTYLVVSEE value=inactive
substance=GCECGISHLVLGAKVVPSMI value=inactive
substance=LQYHRLGQLPRQNRDTVLLL value=inactive
substance=NVHVISVFGFYEVTLFNDEV value=inactive
substance=LNCMQVYFICVTWFAC value=inactive
substance=IRGSSKTDSKRTWVK value=-0.364
substance=IVRMNQCSMGCLRVAMSSS value=inactive
substance=NGSGGWLNINNISEGRWRTG value=inactive
substance=FCRRSGSFVLDMTYWGMYRP value=0.156
substance=CIKIIIFNVERLVALIIVSL value=inactive
substance=ICRLVLIWVPRSSGGVSSSR value=inactive
substance=LRKSLTEQPPKGLASRLYWS value=inactive
substance=IIGSFC value=inactive
substance=QAQIYWM value=inactive
substance=IYVLNLMLFVFCRNVLCDGY value=inactive
substance=VAMVSGIG value=inactive
substance=QQGFSVLERCISEV value=inactive
substance=DVEFGLSKLCYHRVCYVTEM value=-0.113

---

protocol-description: amyloid nucleation score (Sup35N fusion, yeast selection) (log enrichment); library NNK1; higher = more nucleation; inactive = no reads after selection
Classify as follows. Reported amyloid nucleation score greater than or equal to -0.3: TRUE. Reported amyloid nucleation score below: FALSE.

monomer_sequence=LFTKNSIGGVFPCPPETARY category_label=FALSE
monomer_sequence=FESTPLVGHTRASSRYCARF category_label=FALSE
monomer_sequence=SALWRNFSALRSNWK category_label=FALSE
monomer_sequence=FKEYQRNA category_label=FALSE
monomer_sequence=GVSMNSFLICDFDIWQIKTR category_label=TRUE
monomer_sequence=WNYRGIKYF category_label=TRUE
monomer_sequence=YIAMYGARTPSCVVKPG category_label=FALSE
monomer_sequence=EAMLKFTVYTIVRSFNAKSR category_label=TRUE

---

protocol-description: amyloid nucleation score (Sup35N fusion, yeast selection) (log enrichment); library NNK3; higher = more nucleation; inactive = no reads after selection
assay-endpoint: amyloid nucleation score

substance=ITTCLMYHRLCECGSKVLGL assay_endpoint="amyloid nucleation score" value=inactive
substance=RMGVPTSYPDPDLSNDVER assay_endpoint="amyloid nucleation score" value=inactive
substance=VPWGIVSFA assay_endpoint="amyloid nucleation score" value=inactive
substance=TLHWCMVSNHRAKCYCLFET assay_endpoint="amyloid nucleation score" value=0.472
substance=SFVQLMFLFGT assay_endpoint="amyloid nucleation score" value=1.83
substance=KLGMSPSSLYSPAR assay_endpoint="amyloid nucleation score" value=inactive
substance=RCHYSSWWESPCQSVM assay_endpoint="amyloid nucleation score" value=inactive
substance=SCNNDPFTNDNASLVRLGRE assay_endpoint="amyloid nucleation score" value=inactive
substance=KYGFAVRPFDTGSRMSHFCW assay_endpoint="amyloid nucleation score" value=inactive
substance=IIAGGTYECQIQIVYF assay_endpoint="amyloid nucleation score" value=1.22
substance=WWAISTLGMGNQLFLGVPRY assay_endpoint="amyloid nucleation score" value=inactive
substance=LIARCKRAIAGGY assay_endpoint="amyloid nucleation score" value=inactive
substance=KSIIYTILLVWFKYGVHSPL assay_endpoint="amyloid nucleation score" value=inactive
substance=CKSSWDVVMSSVSDWFWDGA assay_endpoint="amyloid nucleation score" value=inactive
substance=AWVDLVLRGFKGYLTYRSLH assay_endpoint="amyloid nucleation score" value=inactive
substance=SCGSSH assay_endpoint="amyloid nucleation score" value=inactive
substance=RCSCCCCNALANDRRVCMVE assay_endpoint="amyloid nucleation score" value=inactive
substance=GCLIAGYKKRDANKFCGVAL assay_endpoint="amyloid nucleation score" value=inactive
substance=DLSVWRALYNGLLQRASH assay_endpoint="amyloid nucleation score" value=inactive
substance=IYIRVRMDEFLMSVTTIARG assay_endpoint="amyloid nucleation score" value=inactive
substance=QRKTYRTVEHGMHSSSNL assay_endpoint="amyloid nucleation score" value=inactive
substance=FTFRLVKNTTLNGIYFCIKR assay_endpoint="amyloid nucleation score" value=0.787
substance=SVTFTSSVLYEGSKVSAFLL assay_endpoint="amyloid nucleation score" value=inactive
substance=SWQMWYWLLVKSMPCMLHHF assay_endpoint="amyloid nucleation score" value=inactive
substance=TMVFILQMLV assay_endpoint="amyloid nucleation score" value=1.47
substance=WTLRFLVKGSRCQFVAP assay_endpoint="amyloid nucleation score" value=inactive
substance=MIFVGILVFSDLRASKVPWV assay_endpoint="amyloid nucleation score" value=inactive
substance=NYGTLMYTVL assay_endpoint="amyloid nucleation score" value=inactive
substance=DLAWPRMPTIQARVEQYCLI assay_endpoint="amyloid nucleation score" value=inactive

---

protocol-description: amyloid nucleation score (Sup35N fusion, yeast selection) (log enrichment); library NNK3; higher = more nucleation; inactive = no reads after selection
assay-endpoint: amyloid nucleation score

substance=RNGIVGD value=inactive
substance=NRLFTH value=inactive
substance=CEYLGPVYIM value=inactive
substance=ATLRAFATVYFHLVTHMFNF value=inactive
substance=YMGCIYIPYVKFYFKM value=1.26
substance=IIAPSGVGWYWR value=inactive
substance=VSSAMYYLFKGLAETLRYSS value=inactive
substance=PGFLGVPTACPLVSYDAVYP value=inactive
substance=IRLHLLLGFVV value=inactive
substance=NWKKCYVHYISSADYALRRF value=inactive
substance=LVWWDGSEWTTWGVADIDWT value=inactive
substance=DKSSSFLVRGLLLHTSRATQ value=inactive
substance=QLSVNMYDCYDNGEHLRIGG value=inactive
substance=HKITVNLS value=inactive
substance=VARNGDLF value=inactive
substance=KNLRVLGSSLIGLTLIECHG value=-0.801
substance=KISETGRCNSLCW value=inactive
substance=SVYCYEAS value=inactive
substance=IDILNG value=0.152
substance=RDTYMGREVCFNNTPERF value=0.21
substance=NLAYTMRGTELICTYVSILP value=inactive
substance=IRVIISGVLGTELKNALAKY value=inactive
substance=SCYFGILQWSQSPYFHCPFT value=inactive
substance=DHPYQRLIEWWLLCIYGSMY value=inactive
substance=LYRAIIIRRWFGNMGDFHKP value=inactive

---

protocol-description: amyloid nucleation score (Sup35N fusion, yeast selection) (log enrichment); library NNK1; higher = more nucleation; inactive = no reads after selection
amyloid nucleation score reference
assay-endpoint: amyloid nucleation score

monomer_sequence=VKYSVENCMITWDVYMGASL value=-0.561
monomer_sequence=FTDTICCIVMQFKPKRSGSS value=4.87
monomer_sequence=GPIRDKSELAYMLPFEVMYT value=0.565
